Source of measurements: paper PMC7459823

System: clinical S. aureus isolate BF1
protocol notes: Broth microdilution MIC, clinical S. aureus isolate BF1
Assay type: cell-based
assay context: Staphylococcus aureus; BF1; read-out: MIC
Hi there, I'd appreciate the recorded MIC for every entry that follows.
Quote the value and follow it with the unit of measurement.

# example entries with known answers
>  <compound>
CC(C)c1onc(-c2c(Cl)cccc2Cl)c1COc1ccc(C=Cc2cccc(C(=O)O)c2)c(Cl)c1

>  <MIC>
4 µg/mL

$$$$
>  <compound>
CC(C)[C@H]1c2ccc(F)cc2CC[C@@]1(CCN(C)CCCc1nc2ccccc2[nH]1)OC(=O)C1CC1.Cl.Cl

>  <MIC>
4 µg/mL

$$$$
>  <compound>
CCCc1c(-c2ccc(O)cc2)nn(-c2ccc(O)cc2)c1-c1ccc(O)cc1

>  <MIC>
8 µg/mL

$$$$

q: If you can, please state the reported MIC value of "Cc1cc(I)ccc1Nc1c(C(=O)NOCC2CC2)cc(F)c(F)c1F" .
a: 2 µg/mL
